# Test system: Drosophila melanogaster bursicon receptor LGR2 (rickets)
# test_name: bursicon receptor inhibitors, cAMP readout – cell-based, HEK293 transfected, TR-FRET cAMP, dry powder, orthogonal assay for LGR2 antagonist project, dose response (AID 977609)
# measurement_parameters: bursicon-stimulated cAMP, Lance TR-FRET
The source made the active and inactive calls.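 The calls were made as follows: active = a rise in signal, meaning less cAMP, whose fitted curve reaches 40% at or below the top valid tested dose; inconclusive = flat fit between 30% and 70%, or a poor fit; inactive = the rest.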
Attribute: AC40
quantity: AC40

[[record]]
smi = "C[C@H](CO)N1C[C@H](C)[C@@H](CN(C)C(=O)Nc2cccc3ccccc23)OCCCC[C@H](C)Oc2ccc(NC(=O)C3CCCCC3)cc2C1=O"
quantity = "AC40"
obs_value = "> 50000 nM (inactive)"

[[record]]
smi = "C[C@H](CO)N1C[C@H](C)[C@H](CN(C)C(=O)Nc2ccc(F)cc2)OCCCC[C@H](C)Oc2ccc(NC(=O)C3CCOCC3)cc2C1=O"
quantity = "AC40"
obs_value = "25000 nM"

[[record]]
smi = "C[C@H]1CCCCO[C@@H](CN(C)C(=O)Nc2ccc(F)cc2)[C@@H](C)CN([C@@H](C)CO)C(=O)c2cc(NC(=O)C3CCCCC3)ccc2O1"
quantity = "AC40"
obs_value = "1380 nM"

[[record]]
smi = "C[C@H](CO)N1C[C@H](C)[C@H](CN(C)C(=O)Nc2ccccc2)OCCCC[C@H](C)Oc2ccc(NC(=O)C3CCCCC3)cc2C1=O"
quantity = "AC40"
obs_value = "736 nM"

[[record]]
smi = "C[C@@H]1CN([C@@H](C)CO)C(=O)c2cc(NC(=O)C3CCCCC3)ccc2O[C@@H](C)CCCCO[C@H]1CN(C)C(=O)Nc1cccc2ccccc12"
quantity = "AC40"
obs_value = "> 50000 nM (inactive)"

[[record]]
smi = "C[C@H](CO)N1C[C@H](C)[C@H](CN(C)C(=O)Nc2ccc3ccccc3c2)OCCCC[C@H](C)Oc2ccc(NC(=O)C3CCCCC3)cc2C1=O"
quantity = "AC40"
obs_value = "219 nM"

